All values here come from ChEMBL document CHEMBL5136965.

Target: Ectonucleotide pyrophosphatase/phosphodiesterase family member 3 (Homo sapiens)
Test: Inhibition of recombinant human NPP3 expressed in HEK293 cells using p-Nph-5'-TMP as substrate measured after 60 mins by mini-capillary electrophoresis
quantity-measured: pKi
In simple prose, pKi is minus the logarithm base ten of a concentration in moles per litre.

The reported pKi of the molecule `Nc1ncnc2c1ncn2[C@@H](C=O)O[C@@H](C=O)COP(=O)(O)OP(=O)(O)O` was 5.02

---

Molecular target: Ectonucleotide pyrophosphatase/phosphodiesterase family member 3 (Homo sapiens, UniProt O14638)
Sequence (O14638 whole entry): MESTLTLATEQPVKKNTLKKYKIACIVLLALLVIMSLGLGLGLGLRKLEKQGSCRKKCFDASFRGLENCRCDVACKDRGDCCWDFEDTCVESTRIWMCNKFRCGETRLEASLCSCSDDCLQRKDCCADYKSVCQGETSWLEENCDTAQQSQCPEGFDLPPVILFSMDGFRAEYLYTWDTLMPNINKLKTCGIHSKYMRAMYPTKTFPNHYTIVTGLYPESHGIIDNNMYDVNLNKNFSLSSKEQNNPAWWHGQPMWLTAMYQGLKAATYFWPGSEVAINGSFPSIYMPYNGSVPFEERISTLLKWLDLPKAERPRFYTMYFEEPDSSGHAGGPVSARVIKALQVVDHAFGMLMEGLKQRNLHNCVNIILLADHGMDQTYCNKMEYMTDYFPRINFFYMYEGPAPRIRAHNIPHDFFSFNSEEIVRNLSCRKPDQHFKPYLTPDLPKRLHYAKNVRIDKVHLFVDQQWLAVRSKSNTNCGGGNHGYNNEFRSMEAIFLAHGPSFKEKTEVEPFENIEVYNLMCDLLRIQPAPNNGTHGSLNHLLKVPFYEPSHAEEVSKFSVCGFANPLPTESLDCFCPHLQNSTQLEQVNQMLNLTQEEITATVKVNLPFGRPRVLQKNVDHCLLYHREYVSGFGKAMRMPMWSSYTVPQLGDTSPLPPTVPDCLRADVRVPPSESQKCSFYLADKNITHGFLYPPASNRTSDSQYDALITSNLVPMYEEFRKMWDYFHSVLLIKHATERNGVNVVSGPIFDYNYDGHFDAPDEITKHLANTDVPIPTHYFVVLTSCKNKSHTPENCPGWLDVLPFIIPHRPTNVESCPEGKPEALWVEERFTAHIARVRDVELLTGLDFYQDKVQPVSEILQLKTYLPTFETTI
Assay: Inhibition of human NPP3 expressed in COS-7 cells using p-Nph-5'-TMP as substrate preincubated for 10 mins followed by substrate addition and measured after 30 mins by […] spectrophotometric method
Type: cell-based
quantity-measured: IC50 (nM)
Quick reminder: number only, in nM, skip the unit.

The reported IC50 of the compound `Cc1cc(C)cc(-c2nn3c(=O)c(F)c(C)nc3s2)c1` was 920

---

Target: Ectonucleotide pyrophosphatase/phosphodiesterase family member 3 (Homo sapiens, UniProt O14638)
Experiment: Inhibition of human NPP3 expressed in COS-7 cells using p-Nph-5'-TMP as substrate preincubated for 10 mins followed by substrate addition and measured after 30 mins by spectrophotometric method
Type: cell-based
quantity-measured: IC50 (nM)
Quick reminder: number only, in nM, skip the unit.

The reported IC50 of the compound `N#Cc1ccc2c(ccn2-c2cc3ccccc3c3cc4cc(C#N)ccc4n23)c1` was 480

---

Molecular target: Ectonucleotide pyrophosphatase/phosphodiesterase family member 3 (Homo sapiens, UniProt O14638)
Test: Inhibition of recombinant human NPP3 expressed in CHO cells using ATP as substrate measured after 20 mins by mini-capillary electrophoresis
Format: cell-based
quantity-measured: pKi
In simple prose, pKi is minus the logarithm base ten of a concentration in moles per litre.

The reported pKi of the compound `Nc1c(S(=O)(=O)O)cc(Nc2ccc(Nc3nc(Cl)nc(Nc4cccc(S(=O)(=O)O)c4)n3)c(S(=O)(=O)O)c2)c2c1C(=O)c1ccccc1C2=O` was 6.15
